Biological target: Apoptotic protease-activating factor 1 (Homo sapiens, UniProt O14727)
Sequence (O14727 whole entry): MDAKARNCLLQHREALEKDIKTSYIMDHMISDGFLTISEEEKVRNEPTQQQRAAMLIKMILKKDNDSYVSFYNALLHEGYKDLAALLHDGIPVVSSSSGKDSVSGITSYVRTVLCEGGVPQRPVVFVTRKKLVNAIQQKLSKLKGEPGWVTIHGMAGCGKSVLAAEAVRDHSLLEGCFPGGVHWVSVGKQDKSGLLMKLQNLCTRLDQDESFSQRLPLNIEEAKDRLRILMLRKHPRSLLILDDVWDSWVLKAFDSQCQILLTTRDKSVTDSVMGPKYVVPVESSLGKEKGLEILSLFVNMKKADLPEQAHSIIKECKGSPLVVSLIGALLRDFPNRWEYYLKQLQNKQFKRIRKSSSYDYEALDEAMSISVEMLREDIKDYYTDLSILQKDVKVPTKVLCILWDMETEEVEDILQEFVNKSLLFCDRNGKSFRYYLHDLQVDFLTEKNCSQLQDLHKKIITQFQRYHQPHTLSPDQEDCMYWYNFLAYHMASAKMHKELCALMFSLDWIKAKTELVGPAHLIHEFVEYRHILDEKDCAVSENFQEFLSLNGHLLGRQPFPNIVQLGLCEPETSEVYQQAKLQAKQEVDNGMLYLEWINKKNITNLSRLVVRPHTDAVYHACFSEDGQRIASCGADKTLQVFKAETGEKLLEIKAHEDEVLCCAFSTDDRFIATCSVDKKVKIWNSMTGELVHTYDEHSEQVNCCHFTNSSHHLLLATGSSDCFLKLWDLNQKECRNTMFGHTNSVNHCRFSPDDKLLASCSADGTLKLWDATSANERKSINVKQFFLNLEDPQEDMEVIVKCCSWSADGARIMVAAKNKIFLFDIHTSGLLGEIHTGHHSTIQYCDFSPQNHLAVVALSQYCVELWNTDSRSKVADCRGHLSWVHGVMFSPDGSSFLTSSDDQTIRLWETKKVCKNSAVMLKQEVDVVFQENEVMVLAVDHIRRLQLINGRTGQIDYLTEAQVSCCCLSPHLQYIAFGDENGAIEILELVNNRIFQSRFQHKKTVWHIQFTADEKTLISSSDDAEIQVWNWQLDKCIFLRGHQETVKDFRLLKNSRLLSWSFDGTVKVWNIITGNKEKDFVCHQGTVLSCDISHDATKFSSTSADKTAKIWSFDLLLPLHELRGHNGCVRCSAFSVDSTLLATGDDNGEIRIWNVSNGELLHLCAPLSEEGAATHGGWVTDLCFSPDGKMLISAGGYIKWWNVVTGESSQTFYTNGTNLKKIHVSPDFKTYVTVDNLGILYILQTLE
Assay type: functional
Active and inactive are the calls of the source.
Attribute measured: IC50

Compound | IC50
Cc1ccc(-c2csc3nc4c5ccccc5c(NCCCN(C)C)nn4c(=O)c23)cc1 | 40 µM (active)
c1cc2c3c(cccc3c1)NC1(CCC3(CC1)Nc1cccc4cccc(c14)N3)N2 | 7.06 µM (active)
CC(C)CCC(C)N/C=C1/C(=O)N(Cc2ccccc2)C(=O)c2ccccc21 (stereo unspecified) | 7.34 µM (active)

Enter recorded IC50 with Apoptotic protease-activating factor 1 (Homo sapiens, UniProt O14727) for O=Cc1ccc2cccc3c2c1NC(C(F)(F)F)=N3 here.
9.2 µM (active)

Report value: IC50, system: Apoptotic protease-activating factor 1 (Homo sapiens, UniProt O14727), compound: CCCOc1cc(NCc2ccccc2)c2ncn(C(C)C)c2c1
5.67 µM (active)

Find the measured IC50 of CC(=O)Nc1ccc(S(=O)(=O)NC2=C(N3CCN(c4ccc(F)cc4)CC3)C(=O)c3ccccc3C2=O)cc1 with Apoptotic protease-activating factor 1 (Homo sapiens, UniProt O14727) as test system.
17.4 µM (active)

----------
In this section we review reported IC50 values for a set of compounds.
Biological target: Bcl-2-related protein A1 (Mus musculus, UniProt Q07440)
Sequence (Q07440 whole entry): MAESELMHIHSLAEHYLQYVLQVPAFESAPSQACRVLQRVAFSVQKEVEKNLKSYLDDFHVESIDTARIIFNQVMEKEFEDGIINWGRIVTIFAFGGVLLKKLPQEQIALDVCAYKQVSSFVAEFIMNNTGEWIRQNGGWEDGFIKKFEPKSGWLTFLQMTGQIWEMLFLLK
Test: Bfl-1 binding inhibitors, SAR follow-up, biochemical, fluorescence polarization (AID 1070)
The source made the active and inactive calls.

Smi | Measured on | Recorded measurement
O=C1C(Cl)=C(Cl)C(=O)N1c1ccccc1Cl | Bcl-2-related protein A1 (Mus musculus, UniProt Q07440) | 10.2 µM (active)
O=C1C(Cl)=C(N2CCN(c3ccc(Cl)c(Cl)c3)CC2)C(=O)N1c1ccc(Cl)c(Cl)c1 | Bcl-2-related protein A1 (Mus musculus, UniProt Q07440) | > 100 µM (not active)
COc1ncccc1-c1nnn(-c2ccc(F)cc2)n1 | Bcl-2-related protein A1 (Mus musculus, UniProt Q07440) | > 100 µM (not active)

Now, please, on to the next compound.
Consider the compound Cc1ccc(NC2=C(Cl)C(=O)N(c3ccc(C)cc3)C2=O)cc1 . State its measured IC50.
1.7 µM (active)

----------
Assay: luciferase reporter signal suppression in cells – H4 neuroglioma cells, luminescence, dose response (AID 1990)
Assay type: functional, cell-based
Activity calls are given as the source filed them.
Reported EC50 values follow for various molecules

Check out these entries, answers already filled in.
Smi | Recorded measurement
COC(=O)c1ccc(CSc2ccc3nnc(-c4ccccc4)n3n2)o1 | > 120 µM (not active)
CCCc1cc(NCCCCO)n2c(nc3ccccc32)c1C#N | 25.6 µM (active)
Cn1ncc2c(ON=C(N)c3ccc(C(C)(C)C)cc3)ncnc21 | > 120 µM (not active)
Cn1c(=O)[nH]c(=O)c2c1nc(N1CCCCCC1)n2Cc1cccc2ccccc12 | 24.4 µM (active)
O=C(OCCN1C(=O)c2cccc3c(N4CCOCC4)ccc(c23)C1=O)c1ccc(Cl)cc1Cl | 9.06 µM (inconclusive)

Using the record for CCCCN1CC(=O)C(c2nc(-c3ccc(Cl)cc3)cs2)=C1N , state its measured EC50.
> 120 µM (not active)

Assign EC50 to the following record: O=c1n(Cc2ccccc2F)c2ccccc2n1Cc1ccccc1F
22 µM (active)

Fill in reported EC50 for this entry: COc1ccccc1N(CC(=O)N/N=C/c1c(O)ccc2ccccc12)S(C)(=O)=O
13.5 µM (active)

Provide only the value of recorded EC50 for CC(=O)N(C(C)=O)c1[nH]cc2c3ccccc3nc-2c1C#N
9.63 µM (active)

----------
Entries annotated with measured IC50
Target: Induced myeloid leukemia cell differentiation protein Mcl-1 (Homo sapiens)
Sequence (Q07820 whole entry): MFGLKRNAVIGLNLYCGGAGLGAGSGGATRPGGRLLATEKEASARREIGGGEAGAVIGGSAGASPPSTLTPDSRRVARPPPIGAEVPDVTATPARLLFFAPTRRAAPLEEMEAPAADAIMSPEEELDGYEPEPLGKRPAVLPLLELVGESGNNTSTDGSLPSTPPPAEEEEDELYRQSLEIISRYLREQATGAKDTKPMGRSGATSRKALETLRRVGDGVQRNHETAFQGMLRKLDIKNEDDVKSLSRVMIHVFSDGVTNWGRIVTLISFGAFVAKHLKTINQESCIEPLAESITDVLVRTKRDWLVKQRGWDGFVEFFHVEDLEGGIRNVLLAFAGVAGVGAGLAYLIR
Type: functional
Calls of active or inactive are those of the source.

Given the compound Oc1ccc(N=Nc2cccc(Cl)c2)cc1/C=N/c1ccc(N2CCOCC2)cc1 , write its reported IC50.
5.14 µM (not active)

Supply recorded IC50 for Nc1ccc(Cc2ccc(N)c(O)c2)cc1O here.
> 54 µM (active)

Give reported IC50 value for O=C(NCc1ccco1)c1c2c(nc3ccccc13)CCC2
4.33 µM (active)

Annotate the compound O=C(NC1CCCCC1)c1sc(=S)n2c1[nH]c(=O)c1ccccc12 with its measured IC50.
> 54 µM (active)

Tell me its IC50 given Cc1sc(NC(=O)c2sc3nc4c(C)cccc4cc3c2N)c(C#N)c1C as the entry.
1.44 µM (active)

----------
Listed compounds paired with reported EC50
Tested on: H4
Experiment: Luminescence Cell-Based Dose Response HTS to Identify Activators of 5'UTR Stem-Loop Driven Prion Protein mRNA Translation in H4 Neuroglioblastoma Cells. [Related pubchem assays: 1829 (Project Summary), 1814 (Primary HTS)]
Format: functional
Conditions: Homo sapiens
Active and inactive are the calls of the source.

Compound | Measured on | Attribute measured | Recorded measurement
CC12CCC(C(=O)Nc3nc4ccccc4s3)(OC1=O)C2(C)C (centres undefined) | H4 | EC50 | 12.7 µM (active)
C=CCNC(SCC(=O)c1ccc(Cl)cc1)=C1C(=O)N(C)C(=O)N(C)C1=O | H4 | EC50 | 19.5 µM (active)
O=C(Nc1cc(C(F)(F)F)ccc1Cl)c1cc2nc3c(c(C(F)(F)F)n2n1)CCCC3 | H4 | EC50 | 0.195 µM (active)

Pending compound:
Given the compound COc1ccc(-c2csc(N3CCSCC3)n2)cc1 , write its reported EC50.
0.112 µM (active)

----------
Molecular target: Troponin, cardiac muscle (Homo sapiens, UniProt P19429+P45379+P63316)
Test: Fluorescence-based biochemical high throughput dose response assay for activators of the calcium sensitivity of cardiac Regulated Thin Filaments (RTF). [Related pubchem assays (depositor defined):AID493008, AID493018, AID504382, AID504383]
Format: protein-complex assay
Active and inactive are the calls of the source.
Outcome field: choose from active, inactive

Smi | Measured on | Assigned category
Cc1ccc(NC(=O)COc2ccc(/C=N/NC(=O)CSCc3ccccc3)cc2)cc1 | Troponin, cardiac muscle (Homo sapiens, UniProt P19429+P45379+P63316) | inactive
Cc1ccc(/C=C2\Oc3c(ccc(O)c3CN3CCN(CCO)CC3)C2=O)cc1 | Troponin, cardiac muscle (Homo sapiens, UniProt P19429+P45379+P63316) | inactive
O=C(Nc1ccc(Cl)c(Cl)c1)Nc1ccc([N+](=O)[O-])cn1 | Troponin, cardiac muscle (Homo sapiens, UniProt P19429+P45379+P63316) | inactive
Cc1cccc(/C=N/n2c(S)nnc2-c2ccncc2)c1 | Troponin, cardiac muscle (Homo sapiens, UniProt P19429+P45379+P63316) | inactive

Let's switch to this molecule now.
Can you look up the reported call for O=C(OCCN1C(=O)c2cccc3c(N4CCOCC4)ccc(c23)C1=O)c1ccc(Cl)cc1Cl for me?
active

Data origin, for the record: ChEMBL document CHEMBL1201862
